# Tested on: tat protein
# method.description: competition filter binding assay with chemically synthesized RNA (Table 4)
# Parameters: species or system HIV-1
# study.conditions: competition filter binding, FIGS. 19, 21-24, 26
[5BrU] = 5-bromo-2'-deoxyuridine; d = 2'-deoxy (DNA); r = 2'-OH (RNA)
reported.metric: competition for tat binding compared with unmodified RNA

>  <substance>
BrdU-24: 14-mer annealed to 17-mer where U24 is replaced by 5-bromo-2'-deoxyuridine (AGCCAGAUUUGAGCAGC; DNA at 9, [5BrU] at 9, other sugars and backbone not given here; annealed to a 14-mer strand, further chemistry not fully specified)

>  <target.or.test.system>
tat protein

>  <observed>
no effect on competition

$$$$
>  <substance>
BrdU-25: 14-mer annealed to 17-mer where U25 is replaced by 5-bromo-2'-deoxyuridine (AGCCAGAUUUGAGCAGC; sugars from the 5' end r9 d1 r7, [5BrU] at 10, backbone not given here; annealed to 14-mer strand)

>  <target.or.test.system>
tat protein

>  <observed>
no effect on competition

$$$$
>  <substance>
dT-23: 14-mer annealed to 17-mer where U23 is replaced by 2'-deoxythymidine (AGCCAGANUUGAGCAGC; 2'-deoxythymidine at 23, annealed 14-mer without entry, chemistry not fully specified)

>  <target.or.test.system>
tat protein

>  <observed>
no effect on competition

$$$$

---

# Tested on: HIV-1 tat protein
# method.description: competition filter binding assay, mutant TAR transcripts against labelled HIV-1 TAR RNA (FIG. 7, Table 1)
# study.conditions: 20 nM TAR RNA, 40 nM tat protein
Flag rule - KRel (ratio of D1/2 values for HIV-1 TAR and competitor RNA) less than 0.8 flags Y; the remaining entries get N.

Consider the worked cases shown below.
>  <substance>
G to U (loop): TAR RNA in which residues 32-34 are changed to uridine (U) (GGGUCUCUCUGGUUAGACCAGAUUUGAGCCUUUUAGCUCUCUGGCUAACUAGGGAACCC; RNA, backbone not given here)

>  <target.or.test.system>
HIV-1 tat protein

>  <answer.label>
N

$$$$
>  <substance>
G28 to C28 ; C37 to G37: pair of TAR point mutations expected to have a normal TAR stem/loop structure (GGGUCUCUCUGGUUAGACCAGAUUUGACCCUGGGAGGUCUCUGGCUAACUAGGGAACCC; chemistry not given here)

>  <target.or.test.system>
HIV-1 tat protein

>  <answer.label>
N

$$$$
>  <substance>
G28 to C28: TAR point mutation expected to disrupt the top of the TAR stem/loop structure (GGGUCUCUCUGGUUAGACCAGAUUUGACCCUGGGAGCUCUCUGGCUAACUAGGGAACCC; chemistry not given here)

>  <target.or.test.system>
HIV-1 tat protein

>  <answer.label>
Y

$$$$
>  <substance>
delta U (bulge): TAR RNA in which residues 23-25 are deleted (GGGUCUCUCUGGUUAGACCAGAGAGCCUGGGAGCUCUCUGGCUAACUAGGGAACCC; RNA, backbone not given here)

>  <target.or.test.system>
HIV-1 tat protein

>  <answer.label>
Y

$$$$
>  <substance>
HIV-1 TAR (UUU): full length HIV-1 TAR RNA of 59 residues prepared by transcription, wild type, UUU bulge (GGGUCUCUCUGGUUAGACCAGAUUUGAGCCUGGGAGCUCUCUGGCUAACUAGGGAACCC; unmodified RNA) [reference compound]

>  <target.or.test.system>
HIV-1 tat protein

>  <answer.label>
N

$$$$

input: Please check: KRel (ratio of D1/2 values for HIV-1 TAR and competitor RNA) for HIV-2 TAR: first stem-loop structure of HIV-2 ROD TAR RNA, bulge of two uridine residues (CUGCGGAGAGGCUGGCAGAUUGAGCCCUGGGAGGUUCUCUCCAGCACUAGCAG; RNA, backbone not given here) [reference compound] , strictly under 0.8 or not?
output: Y
